Tested on: SF-268 CNS
Assay: NCI tumour cell line growth inhibition, 48 h
Measured parameter: TGI (µM)

>>> numeric_readout("O=C(Cc1ccc(/C=C/C(=O)c2ncc[nH]2)cc1)Nc1cc(F)c(F)c(F)c1")
20.1
>>> numeric_readout("CN=c1nc2sc3c(c2c(NC(=S)NC)s1)CCCC3")
87.5
>>> numeric_readout("COc1cc2cc3c4c(cc(OC)c(OC)c4c2cc1OC)CCN3C(=O)OCCN1CCNCC1")
23.3
>>> numeric_readout("COc1cc(/C=C2\\C[C@H]3[C@@H]4CCc5cc(O)ccc5[C@H]4CC[C@]3(C)C2=O)cc(OC)c1OC")
24

----------
System: HL-60(TB) leukemia
Assay: NCI tumour cell line growth inhibition, 48 h; in the data active means GI50 below about 0.43 µM; inactive means the rest
Labels: active, inactive

>>> answer_label("Cn1nc(N)c2cc([C@@H]3Nc4ccc5[nH]ncc5c4[C@H]4C5CCC(C5)[C@@H]34)ccc21 (stereo partly drawn)")
"active"
>>> answer_label("CC(C)CCN1c2nc(Nc3cc(F)c(O)c(F)c3)ncc2N(C)C(=O)C1C (stereo not drawn)")
"inactive"
>>> answer_label("O=C1/C(=C/c2ccc(Br)cc2)COc2ccc(O)c(O)c21")
"inactive"
>>> answer_label("CCN1CCN(C(c2ccc(C(F)(F)F)cc2)c2ccc3cccnc3c2O)CC1 (stereo not drawn)")
"inactive"
>>> answer_label("CN(C)CCCNC(=O)c1cc2[nH]c3c(cnc4ccc([N+](=O)[O-])cc43)c(=O)c2n1C")
"inactive"
>>> answer_label("CCN(CC)c1ccc2c(c1)OC(N)=C(C#N)C2c1cc(OC)c2c(c1)OCO2 (stereo not drawn)")
"active"
>>> answer_label("COc1ccc(-n2cc(-c3cc(OC)c(OC)c(OC)c3)c(C(=O)C(F)(F)F)c2C)cc1")
"inactive"
>>> answer_label("CCn1c(-c2nonc2N)nc2c(C#CC(C)(C)O)nc(OC[C@H](N)c3ccccc3)cc21")
"inactive"
>>> answer_label("OC[C@H]1C[C@](O)(c2ccc(Cl)cc2)[C@@H](c2ccc(Cl)cc2)O1")
"inactive"
>>> answer_label("COc1ccc(/C=C(/C(=O)N2CCN(c3ccccc3)CC2)c2cc(OC)c(OC)c(OC)c2)cc1O")
"active"
>>> answer_label("CCCCCCCCCCCCOC1C(C(COC2OC(C3COC(C)(C)O3)C3OC(C)(C)OC23)NC(=O)Nc2ccc(C(=O)O)cc2)OC2OC(C)(C)OC21 (stereo not drawn)")
"inactive"
>>> answer_label("CCN(CC)CCOc1ccc(-c2nc3cc(Cl)ccc3s2)cc1")
"inactive"
>>> answer_label("C=C1CC[C@@H]2[C@](C)(COC(C)=O)[C@H](OC(C)=O)CC[C@@]2(C)[C@@H]1CC(Sc1ccccc1)C1=CCOC1=O (stereo partly drawn)")
"inactive"

----------
The reader will find reported GI50 values listed item by item below.
System: MDA-MB-435
Measured parameter: GI50

>>> result("CC(C)=CCNc1ncnc2c1ncn2C1OC(CO)C(O)C1O (stereo unspecified)")
"3.26 µM"
>>> result("CCOC(=O)CCCn1c(SC)nc2[nH]cc(-c3ccccc3)c2c1=O")
"19.4 µM"
>>> result("C=COCCCOc1ccccc1")
"> 100 µM"
>>> result("COc1ccc(C(C)=O)cc1N1C(=O)C2C(C1=O)C1(c3ccccc3)C(=O)C2(c2ccccc2)C(c2ccc(C)cc2)=C1c1ccc(C)cc1 (stereo unspecified)")
"> 100 µM"
>>> result("CCN(CC)CCOc1ccc(-c2nc3cc(Cl)ccc3s2)cc1")
"1.65 µM"
>>> result("CCn1c(-c2nonc2N)nc2c(C#CC(C)(C)O)nc(OC[C@H](N)c3ccccc3)cc21")
"4.79 µM"
>>> result("O=C(OC(CNc1cc(=O)n(Cc2ccccc2)c(=O)n1Cc1ccccc1)CN1CCCC1)c1ccccc1 (stereo unspecified)")
"> 100 µM"
>>> result("CN(C)CCCNC(=O)c1cc2[nH]c3c(cnc4ccc([N+](=O)[O-])cc43)c(=O)c2n1C")
"17.3 µM"
>>> result("COc1ccc(-n2cc(-c3cc(OC)c(OC)c(OC)c3)c(C(=O)C(F)(F)F)c2C)cc1")
"43.3 µM"
>>> result("COc1ccc(CN2C(=O)/C(=C\\C(=O)c3ccc(OCCN4CCCCC4)cc3)c3ccccc32)cc1")
"3.12 µM"
>>> result("O=C(Nc1nc2ccc(C(F)(F)F)cc2s1)c1cc(Cl)ccc1O")
"1.69 µM"
